Entries with their measured IC50, system Human immunodeficiency virus type 1 protease (Human immunodeficiency virus 1):
Response body: numeric value in nM, unit text excluded.

Here are 3 molecules together with their reported answers.
# query: IC50 | item CC(C)CN(C[C@@H](O)[C@H](Cc1ccccc1)NC(=O)[C@@H](C[S+]([O-])c1ccc2ccccc2c1)NS(C)(=O)=O)C(=O)NC(C)(C)C (stereo not given in full) | system: Human immunodeficiency virus type 1 protease (Human immunodeficiency virus 1)
2.1

Next molecule up: CC(C)CN(C[C@@H](O)[C@H](Cc1ccccc1)NC(=O)[C@@H](CSc1ccc(F)cc1)NS(C)(=O)=O)C(=O)NC(C)(C)C
85

Next molecule up: CC(C)(C)NC(=O)[C@@H]1C[C@@H]2CCCC[C@@H]2CN1C[C@@H](O)[C@H](Cc1ccccc1)NC(=O)[C@@H](CSc1ccc2ccccc2c1)NS(C)(=O)=O
5.1

***
# query: IC50 | item CC(C)CN(C[C@@H](O)[C@H](Cc1ccccc1)NC(=O)[C@@H](CSc1ccc2ccccc2c1)NS(C)(=O)=O)C(=O)NC(C)(C)C | system: Human immunodeficiency virus type 1 protease (Human immunodeficiency virus 1)
50

Next molecule up: CC(C)(C)NC(=O)[C@@H]1C[C@@H]2SCC[C@@H]2CN1C[C@@H](O)[C@H](Cc1ccccc1)NC(=O)[C@@H](CS(=O)(=O)c1cccc2cccnc12)NC(=O)C(F)(F)F
0.21

Next molecule up: CC(C)(C)NC(=O)[C@@H]1C[C@@H]2CCCC[C@@H]2CN1C[C@@H](O)[C@H](Cc1ccccc1)NC(=O)[C@@H](CS(=O)(=O)c1ccc2ccccc2c1)NS(C)(=O)=O
0.5

Next molecule up: CC(=O)N[C@H](CS(=O)(=O)c1ccc2ccccc2c1)C(=O)N[C@@H](Cc1ccccc1)[C@H](O)CN1C[C@H]2CCCC[C@H]2C[C@H]1C(=O)NC(C)(C)C
1.6

Next molecule up: CC(=O)N[C@H](CSCc1ccccc1)C(=O)N[C@@H](Cc1ccccc1)[C@H](O)CN1C[C@H]2CCCC[C@H]2C[C@H]1C(=O)NC(C)(C)C
6

###

Tested on: CCRF-CEM
Assay: Antiviral activity to inhibit viral replication of HIV-1 infected CEM cells
Assay type: functional
Conditions: Homo sapiens
metric_name: IC95 (nM)
Response body: numeric value in nM, unit text excluded.

Here are 4 molecules together with their reported answers.
Fill in: IC95 of CC(C)(C)NC(=O)[C@@H]1C[C@@H]2SCC[C@@H]2CN1C[C@@H](O)[C@H](Cc1ccccc1)NC(=O)[C@@H](CS(=O)(=O)c1cccc2cccnc12)NC(=O)C(F)(F)F is ___
62

Next molecule up: CC(=O)N[C@H](CS(=O)(=O)c1ccc2ccccc2c1)C(=O)N[C@@H](Cc1ccccc1)[C@H](O)CN1C[C@H]2CCS[C@H]2C[C@H]1C(=O)NC(C)(C)C
23

Next molecule up: CC(C)(C)NC(=O)[C@@H]1C[C@@H]2CCCC[C@@H]2CN1C[C@@H](O)[C@H](Cc1ccccc1)NC(=O)[C@@H](C[S+]([O-])c1ccc2ccccc2c1)NS(C)(=O)=O (stereo not given in full)
8.2

Next molecule up: CC(=O)N[C@H](CS(=O)(=O)c1ccc2ccccc2c1)C(=O)N[C@@H](Cc1ccccc1)[C@H](O)CN1C[C@H]2CCCC[C@H]2C[C@H]1C(=O)NC(C)(C)C
22

***
Fill in: IC95 of CC(=O)N[C@H](CS(=O)(=O)c1ccc(F)cc1)C(=O)N[C@@H](Cc1ccccc1)[C@H](O)CN1C[C@H]2CCS[C@H]2C[C@H]1C(=O)NC(C)(C)C is ___
730
